Tested on: mature cardiomyocytes (hiPSC-CMs) on AFC-ECM
Excerpt: The cardiotoxicity and/or proarrhythmia testing can be conducted using any type of equipment suitable for measuring such activity. […] After the maturation process (generally 7 days or less), the electrophysiology of each well is observed using a plate reader. […] In some embodiments, the plate reader can rely on a suitable high spatiotemporal CCD camera combined with suitable lighting, such as light emitting diodes (LEDs), of the appropriate wavelength to excite each dye. […]

Compound: COc1cc(N)c(Cl)cc1C(=O)NC1CCN(CCCOc2ccc(F)cc2)CC1OC (stereo not shown) [Cisapride]
Subject Of Test: mature cardiomyocytes (hiPSC-CMs) on AFC-ECM
Arrhythmia Detected?: Yes

Compound: Cc1nc2n(c(=O)c1CCN1CCC(c3noc4cc(F)ccc34)CC1)CCCC2
Subject Of Test: mature cardiomyocytes (hiPSC-CMs) on AFC-ECM
Arrhythmia Detected?: No
